These entries and their values trace back to patent US10100058B2.

# subject_of_test: recombinant CaMKIIδ (Homo sapiens (Human))
# experiment: CaMKIIδ biochemical assay (HTRF)
# experimental_parameters: 10 pM CaMKIIδ, 110 nM calmodulin, 12 μM ATP, 1 hour; read-out: CAMKIID-HTRF-384V2 (IC50 - nM)
observation_type: IC50 (nM)

Solved entries:
>>> recorded_value("CCN[C@H](CC)CNC(=O)c1ccnc(-c2cnn3ccc(-c4cccs4)nc23)c1")
7.72
>>> recorded_value("CCN[C@@H](C)CNC(=O)c1cc(C)nc(-c2cnn3ccc(-c4ccccc4)nc23)c1")
41.8
>>> recorded_value("CCN(CC)[C@@H](C)CNC(=O)c1cc(NCCCOC)nc(-c2cnn3ccc(-c4cccs4)nc23)c1")
0.17

1: N[C@H]1CCCN(C(=O)c2ccnc(-c3cnn4ccc(-c5cccs5)nc34)c2)C1
2: CCN(CC)[C@@H](C)CNC(=O)c1cc(-c2c[nH]nc2C(F)(F)F)nc(-c2cnn3ccc(-c4cccs4)nc23)c1
3: CCN(CC)[C@@H](C)CNC(=O)c1cc(-c2cnn3ccc(-c4cccs4)nc23)nc(N2CC[C@H]2C(=O)NCC2CC2)c1
-- ask Ranking field: IC50; order: falling. # format: label list in the order the request specifies
-- reply 1, 3, 2

----------
# subject_of_test: recombinant CaMKIIδ (Homo sapiens (Human), UniProt Q13557)
# experiment: CaMKIIδ biochemical assay (HTRF)
# experimental_parameters: 10 pM CaMKIIδ, 110 nM calmodulin, 12 μM ATP, 1 hour; read-out: CAMKIID-HTRF-384V2 (IC50 - nM)
observation_type: IC50 (nM)

Solved entries:
>>> recorded_value("CCN(CC)[C@@H](C)CNC(=O)c1cc(NCc2cc[nH]n2)nc(-c2cnn3ccc(-c4cccs4)nc23)c1 [Example 212]")
0.3
>>> recorded_value("CCN(CC)[C@@H](C)CNC(=O)c1cc(-c2cnn3ccc(-c4cccs4)nc23)nc(N2CC(CO)(CO)C2)c1 [Example 244]")
0.16
>>> recorded_value("CCN(CC)[C@@H](C)CNC(=O)c1cc(-c2cnn3ccc(-c4cccs4)nc23)nc(N2CC[C@H]2C(=O)N2CC3CC3C2)c1 (stereo partly drawn) [Example 285]")
0.42
>>> recorded_value("C[C@@H](NC(=O)c1ccnc(-c2cnn3ccc(-c4cccs4)nc23)c1)[C@@H]1CCCN1 [Example 13]")
153
>>> recorded_value("CCN(CC)[C@@H](C)CNC(=O)c1cc(-c2cnn3ccc(-c4cccs4)nc23)nc(N2CC[C@@H]2CO)c1 [Example 267]")
0.28
>>> recorded_value("CCN(CC)CCNC(=O)c1cc(-c2cnn3ccc(-c4cccs4)nc23)nc(N2CC(OC)C2)c1 [Example 254]")
0.86

A: CCN(CC)[C@@H](C)CNC(=O)c1cc(-c2cnn3ccc(-c4cccs4)nc23)nc(N2CC(Oc3ccc(F)cc3)C2)c1 [Example 210]
B: CCN(CC)[C@@H](C)CNC(=O)c1cc(OC)nc(-c2cnn3ccc(-c4cccs4)nc23)c1 [Example 112]
C: CCN(CC)[C@@H](C)CNC(=O)c1cc(-c2cnn3ccc(-c4cccs4)nc23)nc(N2CC[C@H]2CO)c1 [Example 268]
D: CCN(CC)[C@@H](C)CNC(=O)c1cc(NC(=O)C(C)C)nc(-c2cnn3ccc(-c4cccs4)nc23)c1 [Example 189]
E: CCN[C@@H](C)CNC(=O)c1cc(-c2cnn3ccc(-c4ccccc4)nc23)nc(C(C)C)c1 [Example 122]
-- ask Ranking field: IC50; order: falling. # format: label list in the order the request specifies
-- reply A, E, D, B, C
